Reported pIC50 by item:
test system: T. cruzi, strain Tulahuen C4, intracellular amastigotes; test: microbe, parasite or virus in culture; settings: Trypanosoma cruzi, TULAHUEN, read-out: IC50 T. cruzi
pIC50 field: float, defined as -log10 of concentration (mol/L).

Below: 3 molecules and their reported pIC50.
Clc1ccc(C(OCCN2CCCCC2)c2ccccc2)cc1 (stereo not shown) : 5.02
CN1CC(=O)N2[C@H](c3ccc4c(c3)OCO4)c3[nH]c4ccccc4c3C[C@@H]2C1=O : 5.07
CN1CCN(CCCN2c3ccccc3Sc3ccc(C(F)(F)F)cc32)CC1 : 4.99

**Q:** Fill blank: measured pIC50 of the molecule `CC(C)CN(C[C@@H](O)[C@H](Cc1ccccc1)NC(=O)O[C@H]1CCOC1)S(=O)(=O)c1ccc(N)cc1` is ____.
**A:** 3.98

* * *

# IC50 listing for each entry below
test system: T. b. rhodesiense strain STIB 900, trypomastigotes; test: In vitro activity against T. b. rhodesiense, serial drug dilution assay; details: Trypanosoma brucei, read-out: IC50 T. b. rhod.
Just the number please, in µM, no unit attached.

Cc1nc2ccccn2c(=O)c1CCN1CCC(C(=O)c2ccc(F)cc2)CC1 [Pirenperone] : 30
Nc1nc(O)c2ncn(COC(CO)CO)c2n1 [Ganciclovir] : 252

**Q:** Endpoint output: IC50 of CN1CCC(=C2c3ccccc3CCc3sccc32)CC1 [Pizotifen] . Value?
**A:** 3.99

* * *

tested on: intracellular amastigotes of L. donovani strain MHOM-ET-67/L82; assay: Activity against Leishmania donovani intracellular amastigotes in mouse peritoneal macrophages; settings: Leishmania donovani, Peritoneal macrophage, in Mus musculus, 96 h, read-out: IC50 L. don. intracell
Each entry below carries its recorded IC50.

// worked examples, IC50 included
Cn1c([N+](=O)[O-])cnc1N1CCN(S(C)(=O)=O)C1=O : > 104 µM
CN1CC(=O)N2[C@H](c3ccc4c(c3)OCO4)c3[nH]c4ccccc4c3C[C@@H]2C1=O : > 77 µM
CO[C@H]1/C=C/O[C@@]2(C)Oc3c(C)c(O)c4c(O)c(c(/C=N/N5CCN(C)CC5)c(O)c4c3C2=O)NC(=O)/C(C)=C\C=C\[C@H](C)[C@H](O)[C@@H](C)[C@@H](O)[C@@H](C)[C@H](OC(C)=O)[C@@H]1C : > 36.5 µM

Field: next compound
**Q:** Record request: IC50 value, item NC(=O)c1cccnc1 [Nicotinamide]
**A:** > 246 µM

* * *

Assay: in vitro
Conditions: rat, IC50 Cytotox. L6
Protocol: Drug stock solutions (10mg/ml) were in DMSO (100%). […] Selectivity index (SI) was calculated as IC50 L6 cells/IC50 parasite.
Measured metric: IC50 (µM)
Supply the numeric figure in µM, leaving out any unit text.

Solved entries (count: 2):
Nc1nc(N)c2nc(-c3ccccc3)c(N)nc2n1 : 8.53
Clc1ccccc1C(c1ccccc1)(c1ccccc1)n1ccnc1 : 2.99

Please find the next molecule below.
**Q:** Given the entry `CO[C@H]1/C=C/O[C@@]2(C)Oc3c(C)c(O)c4c(O)c(c(/C=N/N5CCN(C)CC5)c(O)c4c3C2=O)NC(=O)/C(C)=C\C=C\[C@H](C)[C@H](O)[C@@H](C)[C@@H](O)[C@@H](C)[C@H](OC(C)=O)[C@@H]1C` , report its measured IC50.
**A:** 75.2

* * *

tested on: T. cruzi, strain Tulahuen C4, intracellular amastigotes; experiment: microbe, parasite or virus in culture; conditions: Trypanosoma cruzi, TULAHUEN, read-out: IC50 T. cruzi
pIC50: −log10 of the molar value. Structures can show the parent of a compound that is named as a salt.
# pIC50 >= 4 gives 1.0, anything below gives 0.0

Solved cases (5 shown):
NC(=O)c1cccnc1 [Nicotinamide] : 0.0
CCC[C@@H]1C[C@@H](C(=O)N[C@@H]([C@H]2O[C@H](SC)[C@H](O)[C@@H](O)[C@H]2O)[C@@H](C)O)N(C)C1 : 0.0
CN(C/C=C/C#CC(C)(C)C)Cc1cccc2ccccc12 [Terbinafine (Hydrochloride), Terbinafine] : 1.0
CN(C)CCCN1c2ccccc2Sc2ccccc21 : 1.0
Nc1nc(O)c2ncn(COC(CO)CO)c2n1 : 0.0

**Q:** Check this compound for pIC50 at or above 4: CC1CS(=O)(=O)CCN1/N=C/c1ccc([N+](=O)[O-])o1 (stereo not drawn)
**A:** 1.0

**Q:** Would you say CCN(CCCCOC(=O)c1ccc(OC)c(OC)c1)C(C)Cc1ccc(OC)cc1 (stereo not drawn) shows pIC50 at minimum 4?
**A:** 1.0

**Q:** Entry `CN(C)CCCN1c2ccccc2Sc2ccc(Cl)cc21` : is its pIC50 no less than 4?
**A:** 1.0

* * *

Overview of reported IC50 across a group of compounds:
test: in vitro; conditions: rat, IC50 Cytotox. L6

CCC[C@@H]1C[C@@H](C(=O)N[C@@H]([C@H]2O[C@H](SC)[C@H](O)[C@@H](O)[C@H]2O)[C@@H](C)O)N(C)C1 : > 221 µM
CCS(=O)(=O)CCn1c([N+](=O)[O-])cnc1C : > 243 µM

**Q:** Looking for the measured IC50 of NC(=O)c1cccnc1 [Nicotinamide] , can you help?
**A:** > 737 µM
